- measuredOn: T1, PUF4 RNA-binding domain (Saccharomyces cerevisiae, UniProt P25339 537-888)
- T1 sequence: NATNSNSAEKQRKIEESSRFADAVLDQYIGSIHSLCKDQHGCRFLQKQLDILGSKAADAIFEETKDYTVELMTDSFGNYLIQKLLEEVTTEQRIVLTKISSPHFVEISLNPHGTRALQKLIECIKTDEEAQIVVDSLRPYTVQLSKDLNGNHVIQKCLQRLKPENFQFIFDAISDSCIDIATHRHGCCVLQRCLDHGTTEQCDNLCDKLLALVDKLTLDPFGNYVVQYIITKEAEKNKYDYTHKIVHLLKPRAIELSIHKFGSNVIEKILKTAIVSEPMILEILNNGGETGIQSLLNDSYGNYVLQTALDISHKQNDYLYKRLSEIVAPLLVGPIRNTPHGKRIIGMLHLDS
- assayMethodText: Mg; RNA-MaP; 20 mM Na-HEPES pH 7.4, 30 mM KOAc, 0.75 mM MgCl2, 0.1% Tween-20, 5% glycerol, 0.1 mg/mL BSA, 2 mM DTT; 25 C; 0.0125-409.6 nM protein
- testContext: tags: N-His6-TEV cleaved; C-SNAP kept, Cy3B-labelled; label: tethered on chip by stalled RNA polymerase
pKd: −log10 of the molar value.
Give satisfied when the value for pKd is at least 8. Give not satisfied when it is less.

UCUCUUCAAUAUAUAUAUAUCUCUU (ssRNA) [Id_i_S1_P3E.6_K3.2_C3.3_[T-3C]_[C-2A]_[T-1A]_H3.2_A3.1_F3.1_T3.2]; not satisfied

Next item in the queue.
Reported pKd reaches at least 8 for Ib_S4_P4E.1_K4.1_C4.1_H4.1_[T3C]_[A4C]_A4.1_F4.1_T4.1 (ssRNA) RNA: UUUGACAACUGAUCGUUCUUUCUUGCCUAUUAUUCUUUCUCGAUCAGUUGUCUUU ? not satisfied

The measurements presented in this section are drawn from paper PMC9352680.
